- System: K4 kissing-loop RNA reporter;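 note: bound reporter read as fluorescence of individual clusters on recovered sequencing chips by microscopy, with normalized cluster intensities fitted with a binding model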
- EXPERIMENTAL PROTOCOL: apparent KD of K4 kissing-loop reporter; higher = weaker reporter binding
- CONDITION INFO: Eterna round: R107; input ligand: theophylline 20 uM
ASSAY METRIC: apparent KD of K4 kissing-loop reporter (µM)

>>> obs_value("AUAUAUAACUGAAGGAGCGAGGCCAAAUAUAUAUAGUGAUGUUAUAUAAAGGCACAUAGGCCUCAGGUAGGUCGCAGAAUAAUAU [AstrosExyArGB#1]")
0.271
>>> obs_value("CUUGGAAGGACGGCCGCCACUCGACAGUGAUGUUGUCCGAGUUGGUAACGCAGUGAUGUUGUGUCGAGGACCGGGUCCUAGGAAU [Exclusion Tryptophan B GF 26]")
0.174
>>> obs_value("CCGUAGAACGGAAGGAGCGCCAUAGAUAAGAAUUCCGUAAGUGAGUGAUGUUCACACAAAUGGCAGGUAGGUCGCCGUUAUUUAG [Arg B Ex t5]")
0.202
>>> obs_value("CGUAGAUACUGAGGAUAUCAGAAAUCUGAUAUCAUCAGAGGUCUGAGUGAUGUUCAGAUGCGACUCUGAGAAGGCAGUAGGAGUC [FMN B Ex t2]")
0.123
>>> obs_value("UGGAUAUAGUGAUGUUAUAUAGAGAUGGAUACCAGCGAAGAGAAUUGCCCUUGGCAGCCGAAAGAAGUAUCAUUAGAGAAGAAUG [ExTheophyl.Ah]")
0.261
>>> obs_value("ACGUGUCACUGAAGGAGCGUCUACCGAAUACGAGUGAUGUUCGUACACCACUGAUAUAGUGGACAGGUAGGUCGCAGUGAUACGU [Arg B Ex t3]")
0.102

###

- System: MS2 coat protein
- EXPERIMENTAL PROTOCOL: apparent KD of MS2 coat protein, switch ON state; designed switch direction (-1 OFF switch, 1 ON switch): 1; higher = weaker reporter binding
- CONDITION INFO: FMN input: 0 or 200 uM; Eterna round: R93 (includes R88 designs)
Reported apparent KD of MS2 coat protein values for a set of sequences
ASSAY METRIC: apparent KD of MS2 coat protein (nM)

>>> obs_value("GAAAAACAUGAGGAUCACCCAUGUAGAAAUAUGGGAGGAUAUACAAAGACGAAAGUCAAAGUAGAAGGCCUGAUAG [JL S1 M-MoE mod 3]")
28.6
>>> obs_value("AGAAAUAAAAGUCAGGAUAUGGGUAAGAAAACAUGAGGAUCACCCAUGUAAAAGAAAAUAAAAAACCAGAAGGGACAAAAUAAAG [Reversing G segment in JL's winner (80%) Variant 4]")
30.1
>>> obs_value("AAAAAGAACACGCAGGAUAUGCAAAGAAACACAUGAGGAUCACCCAUGUCCAAAAACCCAAAAACGCAGAAGGGCGAAAAACCCA [Default title]")
25.6
>>> obs_value("AAAAAACAUGAGGAUCACCCAUGUGCAAAAUUCGCAGGAUAUUCCUCAAUUAAAUGAGAGGAAGAAGGGUGUAAAA [Nob's Hobby 25 - Jieux - Same State 1]")
27.4

###

- Test system: MS2 coat protein
- EXPERIMENTAL PROTOCOL: apparent KD of MS2 coat protein; higher = weaker reporter binding
- CONDITION INFO: Eterna round: R107; input ligand: theophylline 2 mM
Reported apparent KD of MS2 coat protein values for a set of sequences
ASSAY METRIC: apparent KD of MS2 coat protein (nM)

>>> obs_value("AAUAACAAGAGGAUCACCCUUGUAAAAGAUACCAGAGUGAUGAUCCUCCCUUGGCAGCUUAACGCUGAUUGAUUACAAUCAGCGA")
142
>>> obs_value("ACAUGAGGAUCACCCAUGUAACAAACAGAAGGAGCGUGAAAGAACACAGGUAGGUCGCUGAACUUAAUGAAUACUCAUUAGAUCC [JR_Nu_SSArginiA_Sub027]")
15.8
>>> obs_value("CCUCAAUAGACGGCCGCCACUGAAACAUGCGGAUACAUGAGGAUCACCCAUGUGGGUGUGUUACGCAGGACCGGGUCAAGACCCG [#12 Same State - Tryptophan B]")
583
